Recorded values, source patent US20220324865A1.

study_system: UniProtKB P43115
Sequence (P43115 whole entry): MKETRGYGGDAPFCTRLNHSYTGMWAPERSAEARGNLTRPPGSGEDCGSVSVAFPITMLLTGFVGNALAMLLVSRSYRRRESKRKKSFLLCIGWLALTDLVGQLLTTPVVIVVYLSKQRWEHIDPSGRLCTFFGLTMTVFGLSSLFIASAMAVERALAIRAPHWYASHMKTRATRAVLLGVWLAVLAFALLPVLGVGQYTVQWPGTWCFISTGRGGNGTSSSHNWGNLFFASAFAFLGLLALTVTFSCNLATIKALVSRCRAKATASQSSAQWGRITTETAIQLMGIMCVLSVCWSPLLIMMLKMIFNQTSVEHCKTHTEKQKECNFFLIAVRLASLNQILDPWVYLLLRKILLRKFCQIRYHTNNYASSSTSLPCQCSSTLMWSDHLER
run_description: Cellular in vitro assay for determining EP3 receptor activity (human EP3 cell line, sulprostone-stimulated calcium luminescence)
protocol_conditions: CHO cells expressing human EP3 and mitochondrial Clytin; antagonist mode, sulprostone at EC50; read-out: EP3 CHO mtCLY ANTAG IC50
Experimental: B-1. Cellular In Vitro Assay for Determining EP3 Receptor Activity The identification of antagonists of the EP3 receptor from humans and rats as well as the quantification of the activity of the compounds of the invention was carried out using recombinant cell lines. […] Antagonists inhibit the receptor signaling, leading to reduced calcium release and luminescence. The bioluminescence of the cell lines is detected using a suitable luminometer (Trends Pharmacol. Sci. 1996, 17, 235-237). […]
The threshold is 1 nM. Values of IC50 beneath it are tagged t; values meeting or exceeding it are tagged f.

[
  {
    "molecule": "Cc1cc(-c2cn3nc(C(=O)NCC(O)(C(F)(F)F)C(F)(F)F)c(C4CC4)c3c(=O)[nH]2)ccc1F [6-658]",
    "cat": "f"
  },
  {
    "molecule": "O=C(N[C@H](CCO)c1ccc(F)cc1)c1cc2c(=O)[nH]c(-c3ccc4ccccc4n3)cn2n1 [6-12]",
    "cat": "f"
  },
  {
    "molecule": "O=C(N[C@@H](c1ccc(F)cc1)C(F)(F)CO)c1nn2cc(-c3ccc(Cl)c(F)c3)[nH]c(=O)c2c1C(F)F [6-631]",
    "cat": "f"
  },
  {
    "molecule": "O=C(N[C@H](CCO)c1ccccc1)c1cc2c(=O)[nH]c(-c3ccc4ccccc4c3)cn2n1 [6-541]",
    "cat": "t"
  },
  {
    "molecule": "Cc1nn(C)cc1CNC(=O)c1nn2c(C)c(-c3ccc4ccccc4c3)[nH]c(=O)c2c1C [Example 3-9]",
    "cat": "f"
  },
  {
    "molecule": "Cc1ccc(-c2cn3nc(C(=O)NC(CCO)c4ccc(C(F)(F)F)cc4)cc3c(=O)[nH]2)cc1C (stereo not drawn) [Example 1-86]",
    "cat": "t"
  },
  {
    "molecule": "COc1ccc(C2(NC(=O)c3nn4cc(-c5ccc(Cl)c(C)c5)[nH]c(=O)c4c3C(F)(F)F)CN(C)C2)cc1 [6-213]",
    "cat": "f"
  },
  {
    "molecule": "O=C(N[C@H](CN1CC(F)C1)c1ccccc1)c1cc2c(=O)[nH]c(-c3ccc4ccccc4c3)cn2n1 [6-545]",
    "cat": "t"
  }
]

Switching to the query record.
Dear reviewer, please state whether C[C@@H](CN1CC(F)C1)NC(=O)c1nn2cc(-c3ccc4ccccc4c3)[nH]c(=O)c2c1C(F)(F)F [6-514] has IC50 strictly beneath 1 nM.
f
